target.or.system: 5-HT2C (Homo sapiens)
Construct: expressed in transfected cells; host or cells: HEK-293 cells
Sequence (P28335 33-458): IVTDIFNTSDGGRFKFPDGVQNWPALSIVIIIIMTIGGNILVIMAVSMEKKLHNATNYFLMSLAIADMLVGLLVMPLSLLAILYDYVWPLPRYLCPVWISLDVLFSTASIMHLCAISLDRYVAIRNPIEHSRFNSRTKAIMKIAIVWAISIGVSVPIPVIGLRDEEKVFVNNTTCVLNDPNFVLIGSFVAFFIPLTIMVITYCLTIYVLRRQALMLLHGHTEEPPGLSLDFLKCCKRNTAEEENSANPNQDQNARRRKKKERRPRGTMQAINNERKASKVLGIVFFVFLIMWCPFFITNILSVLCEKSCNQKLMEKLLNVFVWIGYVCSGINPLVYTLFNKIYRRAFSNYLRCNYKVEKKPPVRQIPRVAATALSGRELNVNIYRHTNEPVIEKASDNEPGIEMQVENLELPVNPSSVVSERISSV
assay.notes: In vitro radioligand binding assay, 5-HT2C, [3H]mesulergine
Set-up: concentration or dose not given beside the values
protocol.conditions: human recombinant (HEK-293 cells)
So I've got a bunch of compounds here, and I need their 5HT2c percent inhibition of specific binding values.
One number for each entry, in %.

Example cases with answers are listed next.
Fc1ccc2c(c1)CCO[C@H]2[C@@H]1CCCN1 ... 61
Fc1cccc2c1[C@H]([C@@H]1CCCN1)OCC2 ... 63
Fc1ccc2c(c1)CCO[C@H]2[C@@H]1CCN1 ... 59
Clc1ccc2c(c1)[C@H]([C@@H]1CCCN1)OCC2 ... 67

Alright, here's another compound for you.
[ask] Quick check: 5HT2c percent inhibition of specific binding of "Fc1cccc2c1[C@H]([C@@H]1CCN1)OCC2" ?
[reply] 64

Source listed as patent US10336732B2.
